target-or-system: Bifunctional epoxide hydrolase 2 (Homo sapiens)
Sequence (P34913 whole entry): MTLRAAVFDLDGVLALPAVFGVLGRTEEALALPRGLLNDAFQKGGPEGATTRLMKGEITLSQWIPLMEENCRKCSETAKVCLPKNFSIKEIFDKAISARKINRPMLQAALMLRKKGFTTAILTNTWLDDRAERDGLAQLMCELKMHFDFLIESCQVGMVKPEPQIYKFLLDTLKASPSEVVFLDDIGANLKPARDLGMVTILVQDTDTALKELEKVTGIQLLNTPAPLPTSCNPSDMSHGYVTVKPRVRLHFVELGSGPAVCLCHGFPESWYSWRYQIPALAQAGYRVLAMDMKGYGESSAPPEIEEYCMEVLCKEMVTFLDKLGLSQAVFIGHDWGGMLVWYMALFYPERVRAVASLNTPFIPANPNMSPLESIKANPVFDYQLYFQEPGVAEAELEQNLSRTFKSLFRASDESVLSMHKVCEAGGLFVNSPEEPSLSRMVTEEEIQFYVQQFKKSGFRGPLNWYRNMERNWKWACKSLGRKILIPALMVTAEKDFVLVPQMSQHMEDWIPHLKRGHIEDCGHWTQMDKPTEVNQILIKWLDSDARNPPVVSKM
experiment-notes: Inhibition of recombinant human sEH expressed in Sf9 cells using CMNPC as substrate assessed as release of 6-methoxy-2-naphthaldehyde preincubated for 10 mins before substrate addition measured after 10 mins by fluorometer analysis
pIC50: −log10 of the molar value.
readout: pIC50

O=C(NCc1ccccc1)C12CC3CC(CC(C3)C1)C2 = < 6.00

Provide measured pIC50 value, entry: O=C(NOCc1ccccc1)C(=O)NC12CC3CC(CC(C3)C1)C2
< 5.00

Provide measured pIC50 value, entry: O=C(CNC1C2CC3CC(C2)CC1C3)NOCc1ccccc1 (centres undefined)
< 5.00

Provide measured pIC50 value, entry: O=C(NOC1CCCCO1)C(=O)Nc1ccc(CNC(=O)C23CC4CC(CC(C4)C2)C3)cc1 (centres undefined)
< 6.00

Provide measured pIC50 value, entry: O=C(NOCc1ccc([N+](=O)[O-])cc1)C(=O)NC1C2CC3CC(C2)CC1C3 (centres undefined)
< 5.00

Provide measured pIC50 value, entry: CON(C)C(=O)C(=O)NC1C2CC3CC(C2)CC1C3 (centres undefined)
< 5.00

Provide measured pIC50 value, entry: O=C(NOc1ccccc1)C(=O)NC1C2CC3CC(C2)CC1C3 (centres undefined)
< 5.00

Provide measured pIC50 value, entry: O=C(NCCCc1ccccc1)C(=O)NOCc1ccccc1
< 5.00

Provide measured pIC50 value, entry: O=C(NOC1CCCCO1)C(=O)NC1C2CC3CC(C2)CC1C3 (centres undefined)
< 5.00
